A collection of compounds and their measured EC50
Target Or Test System: rat GPR55 (Rattus norvegicus, UniProt F1MAK4)
Run Description: Ca2+ mobilization assay (FLIPR, Calcium5 dye), rat GPR55
Measurement Conditions: HEK293 cells co-expressing PK-tagged rat GPR55 and EA-tagged beta-arrestin; intracellular calcium increase

Some compounds with known EC50 results, for comparison:
compound="Cc1cc(C(C)Nc2ncc(-c3ccc4oc(=O)n(C)c4c3)nn2)ccc1F (single isomer, unassigned) [Example 77a]" observable=EC50 val="≤ 1 µM"
compound="C[C@@H](Nc1cnc(-c2cncc(C(O)C(F)F)c2)cn1)c1ccc(F)cc1 (single isomer, unassigned) [Example 54a]" observable=EC50 val="≤ 0.2 µM"
compound="CS(=O)(=O)c1cncc(-c2cnc(N[C@@H]3CCc4ccccc43)cn2)c1 [Example 36]" observable=EC50 val="≤ 5 µM"

Look at this compound and give its reported EC50. CSCn1c(=O)oc2ccc(-c3cnc(N[C@H](C)c4ccc(F)cc4)nn3)cc21 [Example 70]
≤ 0.2 µM

Here is the next compound: C[C@@H](Nc1cnc(-c2cnnc(C(O)C(F)(F)F)c2)cn1)c1ccc(F)cc1 (some centres unmarked) [Example 58]
≤ 5 µM

Here is the next compound: C[C@@H](Nc1cnc(-c2cncc(CCF)c2)cn1)c1ccc(F)cc1 [Example 52]
≤ 0.2 µM

Here is the next compound: C[C@@H](Nc1ncc(-c2cnc3ncn(C)c3c2)nn1)c1ccc(F)cc1 [Example 82]
≤ 5 µM

Here is the next compound: C[C@@H](Nc1cnc(-c2cncc([S+](C)[O-])c2)cn1)c1ccc(F)cc1 (some centres unmarked) [Example 23]
≤ 5 µM

====

A collection of compounds and their measured pEC50
Target Or Test System: human GPR55 (Homo sapiens)
Sequence (Q9Y2T6 whole entry): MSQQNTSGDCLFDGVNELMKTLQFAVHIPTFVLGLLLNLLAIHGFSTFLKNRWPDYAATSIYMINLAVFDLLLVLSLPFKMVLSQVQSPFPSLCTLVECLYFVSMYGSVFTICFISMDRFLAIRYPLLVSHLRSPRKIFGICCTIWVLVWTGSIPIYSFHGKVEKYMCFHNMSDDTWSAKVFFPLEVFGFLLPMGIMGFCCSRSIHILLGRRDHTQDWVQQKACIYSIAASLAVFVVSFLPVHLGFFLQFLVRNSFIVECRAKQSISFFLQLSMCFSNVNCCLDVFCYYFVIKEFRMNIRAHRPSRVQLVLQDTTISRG
Run Description: Ca2+ mobilization assay (FLIPR, Calcium5 dye), human GPR55
Measurement Conditions: HEK293 cells co-expressing PK-tagged human GPR55 and EA-tagged beta-arrestin; intracellular calcium increase
pEC50: −log10 of the molar value.

compound="C[C@@H](Nc1cnc(-c2cnnc(C(O)C(F)(F)F)c2)cn1)c1ccc(F)cc1 (some centres unmarked)" val="≥ 7.30"
compound=C[C@@H](Nc1ccc(-c2cncc(S(C)(=O)=O)c2)cn1)c1ccc(F)cc1 val="≥ 6.70"
compound=C[C@@H](Nc1ncc(-c2cncc(S(C)(=O)=O)c2)nn1)c1ccc(F)cc1 val="≥ 7.30"
compound="C[C@@H](Nc1cnc(-c2cncc(C(O)C(F)(F)F)c2)cn1)c1ccc(F)cc1 (single isomer, unassigned) [Example 32b]" val="≥ 7.30"
compound="CC(Nc1cc(F)c(-c2cncc(S(C)(=O)=O)c2)cn1)c1ccc(F)cc1 (single isomer, unassigned) [Example 29a]" val="≥ 7.30"
compound=CCc1cncc(-c2ccc(N[C@H](C)c3cccc(F)c3)nc2)c1 val="≥ 7.30"

Look at this compound and give its reported pEC50. `CSCn1c(=O)oc2ccc(-c3cnc(N[C@H](C)c4ccc(F)cc4)nn3)cc21`
≥ 6.70

Here is the next compound: `C[C@@H](Nc1ncc(-c2cncc(C=C(F)F)c2)nn1)c1ccc(F)cc1`
≥ 6.70

====

Target Or Test System: rat GPR55 (Rattus norvegicus, UniProt F1MAK4)
Sequence (F1MAK4 1-319): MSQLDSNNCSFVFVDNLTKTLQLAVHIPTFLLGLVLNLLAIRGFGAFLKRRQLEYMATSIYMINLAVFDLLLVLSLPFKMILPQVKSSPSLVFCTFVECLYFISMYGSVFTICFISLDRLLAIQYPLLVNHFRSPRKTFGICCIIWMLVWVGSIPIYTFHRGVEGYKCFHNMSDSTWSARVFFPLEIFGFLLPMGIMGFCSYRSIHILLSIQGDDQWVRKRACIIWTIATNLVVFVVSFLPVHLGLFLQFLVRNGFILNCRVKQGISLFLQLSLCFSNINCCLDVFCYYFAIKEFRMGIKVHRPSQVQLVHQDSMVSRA
Run Description: Ca2+ mobilization assay (FLIPR, Calcium5 dye), rat GPR55
Measurement Conditions: HEK293 cells co-expressing PK-tagged rat GPR55 and EA-tagged beta-arrestin; intracellular calcium increase
pEC50: −log10 of the molar value.
Observable: pEC50

Some compounds with known pEC50 results, for comparison:
compound="C[C@@H](Nc1ccc(-c2cncc(Cl)c2)cn1)c1ccc(F)cc1 [Example 9]" observable=pEC50 val="≥ 7.30"
compound="C[C@@H](Nc1cnc(-c2ccc3oc(=O)n(C)c3c2)cn1)c1ccc(F)cc1 [Example 62]" observable=pEC50 val="≥ 6.00"
compound="Cc1cncc(-c2ccc(NC(C)c3ccc(F)cc3)nc2)c1 (centres unmarked) [Example 1]" observable=pEC50 val="≥ 5.30"
compound="COCn1c(=O)oc2ccc(-c3cnc(N[C@H](C)c4ccc(F)cc4)nn3)cc21 [Example 66]" observable=pEC50 val="≥ 6.00"

Continue with the next compound.
Look at this compound and give its reported pEC50. C[C@@H](Nc1ccc(-c2cncc(C(F)(F)F)c2)cn1)c1ccc(F)cc1 [Example 8]
≥ 7.30
